Each recorded value in this set is attributed to paper PMC10486429.

# reported Liver, accumulated activity; entries follow
System: KB tumor-bearing athymic nude mice
Assay: Biodistribution of 177Lu-RedFols in KB tumor-bearing mice
Format: in vivo, mouse
Details: 4 h p.i.
Respond numerically; units are % IA/g and should not be typed.

Solved cases below.
CN1c2c(nc(N)[nH]c2=O)NCC1CNc1ccc(C(=O)NC(CCC(=O)NC(CCCCNC(=O)CN2CCN(CC(=O)[O-])CCN(CC(=O)[O-])CCN(CC(=O)[O-])CC2)C(=O)NC(CCCCNC(=O)c2ccc(CNC(=O)CCCc3ccc(I)cc3)cc2)C(=O)O)C(=O)O)cc1.[177Lu+3] (stereo not drawn) [[^177Lu]Lu-6S-RedFol-3] = 2.4
CN1c2c(nc(N)[nH]c2=O)NC[C@H]1CNc1ccc(C(=O)N[C@@H](CCC(=O)N[C@@H](CCCCNC(=O)CN2CCN(CC(=O)O)CCN(CC(=O)O)CCN(CC(=O)O)CC2)C(=O)N[C@@H](CCCCNC(=O)c2ccc(CNC(=O)CCCCc3ccc(I)cc3)cc2)C(=O)O)C(=O)O)cc1 [[^177Lu]Lu-6R-RedFol-25, metal not drawn] = 2.1
CN1c2c(nc(N)[nH]c2=O)NC[C@H]1CNc1ccc(C(=O)N[C@@H](CCC(=O)N[C@@H](CCCCNC(=O)CN2CCN(CC(=O)O)CCN(CC(=O)O)CCN(CC(=O)O)CC2)C(=O)N[C@@H](CCCCNC(=O)c2ccc(CNC(=O)CCCc3ccc(I)cc3)cc2)C(=O)O)C(=O)O)cc1 [[^177Lu]Lu-6R-RedFol-3, metal not drawn] = 3.0

Exercise: Give the measured Liver, accumulated activity of CN1c2c(nc(N)[nH]c2=O)NCC1CNc1ccc(C(=O)NC(CCC(=O)NC(CCCCNC(=O)CN2CCN(CC(=O)[O-])CCN(CC(=O)[O-])CCN(CC(=O)[O-])CC2)C(=O)NC(CCCCNC(=O)c2ccc(CNC(=O)CCCCc3ccc(I)cc3)cc2)C(=O)O)C(=O)O)cc1.[177Lu+3] (stereo not drawn) [[^177Lu]Lu-6S-RedFol-25] .
Key: 1.9

Exercise: Give the measured Liver, accumulated activity of CN1c2c(nc(N)[nH]c2=O)NC[C@H]1CNc1ccc(C(=O)N[C@@H](CCC(=O)N[C@@H](CCCCNC(=O)CN2CCN(CC(=O)O)CCN(CC(=O)O)CCN(CC(=O)O)CC2)C(=O)N[C@@H](CCCCNC(=O)CCCCc2ccc(I)cc2)C(=O)O)C(=O)O)cc1 [[^177Lu]Lu-6R-RedFol-24, metal not drawn] .
Key: 1.9

---

Test system: KB tumor-bearing athymic nude mice
Assay: Biodistribution of 177Lu-RedFols in KB tumor-bearing mice
Format: in vivo, mouse
Details: 1 h p.i.
Endpoint name: Stomach, accumulated activity (% IA/g)
Respond numerically; units are % IA/g and should not be typed.

Solved cases below.
CN1c2c(nc(N)[nH]c2=O)NC[C@H]1CNc1ccc(C(=O)N[C@@H](CCC(=O)N[C@@H](CCCCNC(=O)CN2CCN(CC(=O)O)CCN(CC(=O)O)CCN(CC(=O)O)CC2)C(=O)N[C@@H](CCCCNC(=O)c2ccc(CNC(=O)CCCc3ccc(I)cc3)cc2)C(=O)O)C(=O)O)cc1 [[^177Lu]Lu-6R-RedFol-3, metal not drawn] = 1.9
CN1c2c(nc(N)[nH]c2=O)NC[C@H]1CNc1ccc(C(=O)N[C@@H](CCC(=O)N[C@@H](CCCCNC(=O)CN2CCN(CC(=O)O)CCN(CC(=O)O)CCN(CC(=O)O)CC2)C(=O)N[C@@H](CCCCNC(=O)CCCCc2ccc(I)cc2)C(=O)O)C(=O)O)cc1 [[^177Lu]Lu-6R-RedFol-24, metal not drawn] = 1.5
CN1c2c(nc(N)[nH]c2=O)NC[C@H]1CNc1ccc(C(=O)N[C@@H](CCC(=O)N[C@@H](CCCCNC(=O)CN2CCN(CC(=O)O)CCN(CC(=O)O)CCN(CC(=O)O)CC2)C(=O)N[C@@H](CCCCNC(=O)c2ccc(CNC(=O)CCCCc3ccc(I)cc3)cc2)C(=O)O)C(=O)O)cc1 [[^177Lu]Lu-6R-RedFol-25, metal not drawn] = 1.7

Exercise: Give the measured Stomach, accumulated activity of CN1c2c(nc(N)[nH]c2=O)NCC1CNc1ccc(C(=O)NC(CCC(=O)NC(CCCCNC(=O)CN2CCN(CC(=O)[O-])CCN(CC(=O)[O-])CCN(CC(=O)[O-])CC2)C(=O)NC(CCCCNC(=O)c2ccc(CNC(=O)CCCc3ccc(I)cc3)cc2)C(=O)O)C(=O)O)cc1.[177Lu+3] (stereo not drawn) [[^177Lu]Lu-6S-RedFol-3] .
Key: 1.8

Exercise: Give the measured Stomach, accumulated activity of CN1c2c(nc(N)[nH]c2=O)NCC1CNc1ccc(C(=O)NC(CCC(=O)NC(CCCCNC(=O)CN2CCN(CC(=O)[O-])CCN(CC(=O)[O-])CCN(CC(=O)[O-])CC2)C(=O)NC(CCCCNC(=O)c2ccc(CNC(=O)CCCCc3ccc(I)cc3)cc2)C(=O)O)C(=O)O)cc1.[177Lu+3] (stereo not drawn) [[^177Lu]Lu-6S-RedFol-25] .
Key: 1.3
